Assign Biodistribution of radioactivity, Stomach to each entry below.
test name: Ex vivo biodistribution in normal mice
Design: species or system ddY mice
measurement context: i.v., 30 min after injection, mean (SD), 5 animals

Task item: Name the recorded Biodistribution of radioactivity, Stomach for CN(C)c1ccc(/C=C/c2ccc(C3=N[O][99Tc-]4(=[O])([NH]C(c5ccc(N(C)C)cc5)=N[O]4)[NH2+]3)cc2)cc1 (single isomer, unassigned) [[^99mTc]SB1A] .
Reply: 10.28 (2.03) % injected dose per organ

Task item: Name the recorded Biodistribution of radioactivity, Stomach for CN(C)c1ccc(C2=N[O][99Tc-]3(=[O])([NH]2)[NH2+]C(c2ccc4nc(-c5ccc(N(C)C)cc5)sc4c2)=N[O]3)cc1 [[^99mTc]BT1B] .
Reply: 8.24 (1.41) % injected dose per organ

Task item: What does the data say about its Biodistribution of radioactivity, Stomach? Entry: CN(C)c1ccc(/C=C/c2ccc(C3=N[O][99Tc-]4(=[O])([NH]3)[NH2+]C(c3ccc(/C=C/c5ccc(N(C)C)cc5)cc3)=N[O]4)cc2)cc1 (single isomer, unassigned) [[^99mTc]SB2A]
Reply: 16.13 (2.33) % injected dose per organ

Task item: So what's the measured Biodistribution of radioactivity, Stomach for this one? CN(C)c1ccc(-c2nc3ccc(C4=N[O][99Tc-]5(=[O])([NH]4)[NH2+]C(c4ccc6nc(-c7ccc(N(C)C)cc7)sc6c4)=N[O]5)cc3s2)cc1 [[^99mTc]BT2B]
Reply: 6.47 (1.37) % injected dose per organ
